Origin of measurements: patent US9045468B2

biological target: hSERT (Homo sapiens (Human)); experiment: SERT radioligand binding assay ([125I]RTI-55, HEK-293 membranes); settings: recombinant HEK-293 membranes, [125I]RTI-55; read-out: Binding Affinity (IC50, nM) SERT
Sequence (P31645 whole entry): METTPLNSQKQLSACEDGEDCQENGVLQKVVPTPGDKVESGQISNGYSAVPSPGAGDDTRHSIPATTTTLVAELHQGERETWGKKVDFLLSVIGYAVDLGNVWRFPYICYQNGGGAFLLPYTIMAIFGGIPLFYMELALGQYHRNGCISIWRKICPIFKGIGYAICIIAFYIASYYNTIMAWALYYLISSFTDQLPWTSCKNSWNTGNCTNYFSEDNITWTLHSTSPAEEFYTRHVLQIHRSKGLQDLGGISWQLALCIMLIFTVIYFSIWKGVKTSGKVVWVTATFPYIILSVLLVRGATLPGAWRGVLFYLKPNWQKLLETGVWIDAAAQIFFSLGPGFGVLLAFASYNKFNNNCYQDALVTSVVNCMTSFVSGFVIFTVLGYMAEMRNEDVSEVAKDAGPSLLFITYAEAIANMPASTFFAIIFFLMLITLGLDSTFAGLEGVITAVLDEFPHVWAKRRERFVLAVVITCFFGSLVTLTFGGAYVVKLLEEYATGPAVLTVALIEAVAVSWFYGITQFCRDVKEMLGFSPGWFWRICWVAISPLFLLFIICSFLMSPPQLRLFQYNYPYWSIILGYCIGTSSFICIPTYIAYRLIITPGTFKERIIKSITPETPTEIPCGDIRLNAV
Mark Yes only when IC50 stays strictly below 7 nM. Values equal to the cut-off are No.

Solved cases below.
>>> answer_label("Fc1ccc(C23CCN(CC2)Cc2cc(-c4ccc5ncnn5c4)ccc23)cc1Cl [Example 54]")
"Yes"
>>> answer_label("COc1ccc2c(c1)CN1CCC2(c2ccc(Cl)cc2)CC1 [Example 12]")
"No"
>>> answer_label("Nc1cnc(-c2ccc3c(c2)CN2CCC3(c3ccc(Cl)cc3)CC2)cn1 [Example 18]")
"Yes"
>>> answer_label("CS(=O)(=O)c1ccc(-c2ccc3c(c2)CN2CCC3(c3ccc(Cl)cc3)C2)cc1 (racemic) [Example 9]")
"No"
>>> answer_label("Oc1ccc(-c2ccc3c(c2)CN2CCC3(c3ccc(Cl)cc3)C2)nn1 (single isomer, unassigned) [7(+)]")
"No"
>>> answer_label("N#Cc1ccc(-c2ccc3c(c2)CN2CCC3(c3ccc(Cl)cc3)C2)cc1 (racemic) [Example 8]")
"No"
>>> answer_label("Oc1ccc(-c2ccc3c(c2)CN2CCC3(c3ccc(Cl)c(Cl)c3)CC2)nn1 [Example 41]")
"Yes"
>>> answer_label("Clc1ccc(C23CCN(Cc4cc(-c5ccc6ncnn6c5)ccc42)C3)cc1Cl (single isomer, unassigned) [10(+)]")
"Yes"
>>> answer_label("Fc1ccc(C23CCN(CC2)Cc2cc(-c4ccc(C(F)(F)F)nn4)ccc23)cc1Cl [Example 53]")
"Yes"
>>> answer_label("FC(F)Oc1ccc(-c2ccc3c(c2)CN2CCC3(c3ccc(Cl)c(Cl)c3)CC2)nn1 [Example 39]")
"Yes"

Prompt: Find out if reported IC50 for FC(F)Oc1ccc(-c2ccc3c(c2)CN2CCC3(c3ccc(Cl)cc3)C2)nn1 (single isomer, unassigned) [6(+)] is less than 7 nM
Completion: No

Prompt: Same for O=c1ccccn1-c1ccc2c(c1)CN1CCC2(c2ccc(Cl)cc2)CC1 [Example 24]
Completion: No

Prompt: Same for Fc1ccc(C23CCN(CC2)Cc2cc(Oc4ccc(C(F)(F)F)nn4)ccc23)cc1F [Example 51]
Completion: No

Prompt: Same for Clc1ccc(C23CCN(CC2)Cc2cc(Oc4cnccn4)ccc23)cc1Cl [Example 44]
Completion: Yes

Prompt: Same for COc1ccc(-c2ccc3c(c2)CN2CCC3(c3ccc(Cl)c(Cl)c3)CC2)nn1 [Example 40]
Completion: No

Prompt: Same for c1cc(C23CCN(CC2)Cc2cc(N4CCOCC4)ccc23)ccc1N1CCOCC1 [Example 29]
Completion: No

Prompt: Same for Clc1ccc(C23CCN(CC2)Cc2cc(-c4cnccn4)ccc23)cc1 [Example 17]
Completion: Yes

Prompt: Same for FC(F)Oc1ccc2c(c1)CN1CCC2(c2ccc(Cl)c(Cl)c2)CC1 [Example 46]
Completion: Yes

Prompt: Same for Clc1ccc(C23CCN(CC2)Cc2cc(-c4cncnc4)ccc23)cc1 [Example 16]
Completion: No

Prompt: Same for Fc1ccc(C23CCN(Cc4cc(-c5ccc(C(F)(F)F)nn5)ccc42)C3)cc1Cl (single isomer, unassigned) [56(−)]
Completion: No

Prompt: Same for Clc1ccc(C23CCN(CC2)Cc2cc(OCCCc4ccncc4)ccc23)cc1 [Example 35]
Completion: Yes

Prompt: Same for Clc1ccc(C23CCN(Cc4cc(-c5ccc6ncnn6c5)ccc42)C3)cc1Cl (single isomer, unassigned) [10(−)]
Completion: Yes

Prompt: Same for Fc1ccc(C23CCN(Cc4cc(-c5ccc(C(F)(F)F)nn5)ccc42)C3)cc1Cl (single isomer, unassigned) [56(+)]
Completion: Yes

Prompt: Same for Nc1cnc(Oc2ccc3c(c2)CN2CCC3(c3ccc(Cl)cc3)CC2)cn1 [Example 34]
Completion: Yes

Prompt: Same for Clc1ccc(C23CCN(Cc4cc(-c5ccc6ncnn6c5)ccc42)C3)cc1 (single isomer, unassigned) [3(−)]
Completion: Yes
